system: PPARg:RXRa 30nM:10nM, anti-RXR (NR concentration 30 nM, RXRa partner concentration 10 nM); assay: PBM binding z-score (relative to random genomic background probes); higher = stronger binding; sequences stand for … in GC…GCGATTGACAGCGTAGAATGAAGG
Listing of entries alongside the reported PBM binding z-score.

TCTTATAGGTAAATGCTAGGTGAAAGTCCGATCT :: 3.79
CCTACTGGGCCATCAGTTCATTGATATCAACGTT :: 0.638
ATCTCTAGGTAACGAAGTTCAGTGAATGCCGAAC :: 0.0863
CGTCAAAGTTCAACTAAGGTAACGTAAAGCACGC :: 2.32
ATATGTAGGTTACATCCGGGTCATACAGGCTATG :: 2.96
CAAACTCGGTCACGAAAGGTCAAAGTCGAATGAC :: 2.68

Inquiry: Which measured PBM binding z-score value corresponds to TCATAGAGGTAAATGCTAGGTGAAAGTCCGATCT ?
Reply text: 2.66

Inquiry: Which measured PBM binding z-score value corresponds to ATCTCTAGGTAAGACACAGTTCAGTGAAGAACGC ?
Reply text: 0.784

Inquiry: Which measured PBM binding z-score value corresponds to TCTGCTAAGTCAACGATGGTCAGCTAATCTGCTA ?
Reply text: 1.33

Inquiry: Which measured PBM binding z-score value corresponds to CCTAGTTGGTCCAGGTCACACACGCTATAGGTAC ?
Reply text: 0.532

Inquiry: Which measured PBM binding z-score value corresponds to ATCTCTAGGTAAAAGATCAGTGAATCCCGAGGAT ?
Reply text: 4.13
